# method summary: Cmax in healthy human plasma at 200 mg, po twice a day for 8 days by reverse-phase HPLC-MS method
# Format: ADME, organism-based
# Set-up: dose 200 mg, route oral
measurement label: Cmax (ng/mL)
Give a bare numeral; the unit ng/mL is implied.

Which Cmax is listed for Cc1cc(C#N)cc(C)c1Oc1nc(Nc2ccc(C#N)cc2)nc(N)c1Br ?
734

* * *

# method summary: Cmax in healthy human plasma at 200 mg, po twice a day for 4 days coadministered with 400 mg of raltegravir, po twice a day for 4 days by reverse-phase HPLC-MS method
# Assay type: ADME, organism-based
# Parameters: dose 200 mg, route oral
measurement label: Cmax (ng/mL)
The reply should contain only the number, in ng/mL.

Which Cmax is reported for this molecule? Cc1cc(C#N)cc(C)c1Oc1nc(Nc2ccc(C#N)cc2)nc(N)c1Br
766

* * *

# method summary: Cmax in healthy human plasma at 400 mg, po twice a day for 4 days by reverse-phase HPLC-MS method
# Format: ADME, organism-based
# Design: dose 400 mg, route oral
measurement label: Cmax (nM)
Just the number in nM, nothing appended.

I would be grateful if you could share the reported Cmax for Cc1nnc(C(=O)NC(C)(C)c2nc(C(=O)NCc3ccc(F)cc3)c(O)c(=O)n2C)o1 .
1740

* * *

# method summary: Trough drug concentration at 12 hrs in healthy human plasma at 200 mg, po twice a day for 8 days by reverse-phase HPLC-MS method
# Assay type: ADME, organism-based
# conditions used: read-out: Cmin
measurement label: concentration at 12 h (ng/mL)
Give your result in ng/mL as a bare value.

Reported concentration at 12 h for Cc1cc(C#N)cc(C)c1Oc1nc(Nc2ccc(C#N)cc2)nc(N)c1Br : what is it?
373

* * *

# method summary: Tmax in healthy human plasma at 200 mg, po twice a day for 8 days by reverse-phase HPLC-MS method
# Format: ADME, organism-based
measurement label: Tmax (h)
The reply should be a number in h, with the unit left off.

Name the reported Tmax value associated with the molecule Cc1cc(C#N)cc(C)c1Oc1nc(Nc2ccc(C#N)cc2)nc(N)c1Br
4

* * *

# method summary: Tmax in healthy human plasma at 200 mg, po twice a day for 4 days coadministered with 400 mg of raltegravir, po twice a day for 4 days by reverse-phase HPLC-MS method
# Format: ADME, organism-based
measurement label: Tmax (h)
Provide only the numeric value, understood in h.

So what's the measured Tmax for this one? Cc1cc(C#N)cc(C)c1Oc1nc(Nc2ccc(C#N)cc2)nc(N)c1Br [ETRAVIRINE]
4

* * *

# method summary: Tmax in healthy human plasma at 400 mg, po twice a day for 4 days coadministered with 200mg of etravirine twice a day for 4 days by reverse-phase HPLC-MS method
# Format: ADME, organism-based
measurement label: Tmax (h)
Numbers only; they are read as h.

For the compound shown here, Cc1nnc(C(=O)NC(C)(C)c2nc(C(=O)NCc3ccc(F)cc3)c(O)c(=O)n2C)o1 , give the reported Tmax.
3

* * *

# Test system: Homo sapiens
# method summary: AUC (0 to 12 hrs) in healthy human plasma at 200 mg, po twice a day for 4 days coadministered with 400 mg of raltegravir, po twice a day for 4 days by reverse-phase HPLC-MS method
# Format: ADME, organism-based
# Parameters: time < 12 hr, dose 200 mg, route oral
# conditions used: in vivo
measurement label: AUC (ng·h/mL)
The reply should be a number in ng·h/mL, with the unit left off.

I have this molecule here, Cc1cc(C#N)cc(C)c1Oc1nc(Nc2ccc(C#N)cc2)nc(N)c1Br [ETRAVIRINE] , and I need its recorded AUC.
6810

Data provenance is ChEMBL document CHEMBL1275564.
